Consider the following compounds; for each one, report its residual activity.
# experimental-system: PRKD3 (human)
# procedure-summary: radiometric filter-binding kinase assay, Kinase HotSpot
# measurement-setup: compound 0.5 µM; ATP 10 µM
Numeric only. Scale: %

Given item COc1cc2ncnc(Nc3cccc(Cl)c3)c2cc1OC , the value recorded as its residual activity is 86.5

According to the records, this compound CC[n+]1c(/C=C/N(C)c2ccccc2)n(-c2ccccc2)c2ccc(-c3nc4ccccc4s3)cc21 displays residual activity of 97.4

Looking up CCCC(=O)Oc1ccc2[nH]c(C(=O)c3cc4ccccc4[nH]3)cc2c1 , I found its residual activity recorded as 102

Reported residual activity ( Cc1[nH]c(/C=C2\C(=O)Nc3ccc(S(=O)(=O)N(C)c4cccc(Cl)c4)cc32)c(C)c1C(=O)N1CCN(C)CC1 ) = 42.7

* * *

# experimental-system: NEK11 (human) (UniProt Q8NG66)
# Sequence (Q8NG66 whole entry, looked up): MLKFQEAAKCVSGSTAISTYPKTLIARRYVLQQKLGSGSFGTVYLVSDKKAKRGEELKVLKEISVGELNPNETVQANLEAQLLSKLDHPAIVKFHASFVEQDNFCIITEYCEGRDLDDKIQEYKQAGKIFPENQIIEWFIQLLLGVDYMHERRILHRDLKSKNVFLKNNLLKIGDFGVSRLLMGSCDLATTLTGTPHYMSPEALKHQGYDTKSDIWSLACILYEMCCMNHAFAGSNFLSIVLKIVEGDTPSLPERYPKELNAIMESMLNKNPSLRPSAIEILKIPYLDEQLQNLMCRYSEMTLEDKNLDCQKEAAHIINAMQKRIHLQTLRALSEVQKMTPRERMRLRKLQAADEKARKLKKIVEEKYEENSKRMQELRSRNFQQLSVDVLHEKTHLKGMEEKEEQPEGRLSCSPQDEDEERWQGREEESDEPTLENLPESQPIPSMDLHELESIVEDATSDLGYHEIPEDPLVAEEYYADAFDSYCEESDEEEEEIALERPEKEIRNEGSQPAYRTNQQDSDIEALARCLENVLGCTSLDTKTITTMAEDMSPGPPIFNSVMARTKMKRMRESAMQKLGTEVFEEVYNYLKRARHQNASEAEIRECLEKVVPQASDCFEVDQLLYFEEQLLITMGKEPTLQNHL
# procedure-summary: radiometric filter-binding kinase assay, Kinase HotSpot
# measurement-setup: compound 0.5 µM; ATP 10 µM
quantity-measured: residual activity (%)
# output: bare number, implied unit %

// field: residual activity; key: CCOC(=O)c1c(C)[nH]c(/C=C2\C(=O)Nc3ccccc32)c1C ; value = 96.6

Per the record, O=C(Nc1cccc(Nc2nccc(Nc3cccc(C(F)(F)F)c3)n2)c1)C1CC1 has residual activity of 102

For reference, reported residual activity for CNC(=O)c1cc(Oc2ccc(NC(=O)Nc3ccc(Cl)c(C(F)(F)F)c3)cc2)ccn1 stands at 105

So, N#C/C(=C(/N)Sc1ccc(N)cc1)c1ccccc1C(F)(F)F ? Its residual activity was 97.7

The molecule listed as O=C1NC(=O)C(c2cn(CCCn3ccnc3)c3ccccc23)=C1Nc1ccccc1 shows residual activity equal to 75.6

* * *

What residual activity was measured for each of the following?
# experimental-system: ITK (human) (UniProt Q08881)
# Sequence (Q08881 whole entry, looked up): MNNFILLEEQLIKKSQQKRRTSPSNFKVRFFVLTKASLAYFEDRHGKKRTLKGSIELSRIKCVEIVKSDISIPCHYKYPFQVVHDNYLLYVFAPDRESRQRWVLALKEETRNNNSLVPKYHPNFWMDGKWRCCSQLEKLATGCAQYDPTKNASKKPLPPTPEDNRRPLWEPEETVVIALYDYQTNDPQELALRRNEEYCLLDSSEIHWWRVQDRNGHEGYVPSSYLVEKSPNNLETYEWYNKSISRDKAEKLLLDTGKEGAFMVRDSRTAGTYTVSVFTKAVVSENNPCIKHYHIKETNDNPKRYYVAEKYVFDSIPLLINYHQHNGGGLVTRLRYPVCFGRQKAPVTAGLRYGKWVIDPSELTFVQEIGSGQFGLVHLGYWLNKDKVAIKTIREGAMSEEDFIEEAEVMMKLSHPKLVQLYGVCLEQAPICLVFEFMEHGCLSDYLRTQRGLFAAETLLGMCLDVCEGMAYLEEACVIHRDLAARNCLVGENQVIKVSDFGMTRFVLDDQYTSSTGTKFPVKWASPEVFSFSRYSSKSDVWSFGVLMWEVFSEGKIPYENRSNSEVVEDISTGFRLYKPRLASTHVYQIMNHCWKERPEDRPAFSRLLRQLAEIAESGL
# procedure-summary: radiometric filter-binding kinase assay, Kinase HotSpot
# measurement-setup: compound 0.5 µM; ATP 10 µM
Answer with a number only, understood to be in %.

The reported residual activity value, ITK (human) (UniProt Q08881), for CNc1cc2c(Nc3cccc(Br)c3)ncnc2cn1 reads 92.5

Bench note, ITK (human) (UniProt Q08881): entry O=C(Nc1cccc(Nc2nccc(Nc3cccc(C(F)(F)F)c3)n2)c1)C1CC1 , its residual activity = 101

COc1ccc2c(c[n+](C)c3c4cc5c(cc4ccc23)OCO5)c1OC tested on ITK (human) (UniProt Q08881) gave residual activity: 99.2

// residual activity (ITK (human) (UniProt Q08881)) for Cc1ccc(S(=O)(=O)/C=C/C#N)cc1 = 102

The measured residual activity that Nc1ncnc2[nH]nc(Nc3ccc(F)cc3)c12 showed for ITK (human) (UniProt Q08881) is 93.9

# lookup: CC#CC(=O)Nc1cc2c(Nc3ccc(F)c(Cl)c3)ncnc2cn1 on ITK (human) (UniProt Q08881), residual activity = 76.3

Readout residual activity for CCN(CC)CCNC(=O)c1c(C)[nH]c(/C=C2\C(=O)Nc3ccc(F)cc32)c1C , test system ITK (human) (UniProt Q08881), was 64.3

Entry O=C1Nc2ccc(Cl)cc2/C1=C/c1cc(Cl)c(O)c(Cl)c1 ; assay system ITK (human) (UniProt Q08881); residual activity recorded at 91.8

Recorded residual activity for Cc1ccc(Nc2nccc(N(C)c3ccc4c(C)n(C)nc4c3)n2)cc1S(N)(=O)=O on ITK (human) (UniProt Q08881) was 115

CC(C)N(CCC(=O)c1ccc2ccccc2c1)Cc1ccccc1 tested on ITK (human) (UniProt Q08881) gave residual activity: 89.9

Sample O=S(=O)(c1cccc2cnccc12)N1CCCNCC1 , system: ITK (human) (UniProt Q08881). Its residual activity is 90.7
